- SYSTEM TESTED: UDP-3-O-acyl-N-acetylglucosamine deacetylase (Escherichia coli K-12)
- Sequence (P0A725 whole entry): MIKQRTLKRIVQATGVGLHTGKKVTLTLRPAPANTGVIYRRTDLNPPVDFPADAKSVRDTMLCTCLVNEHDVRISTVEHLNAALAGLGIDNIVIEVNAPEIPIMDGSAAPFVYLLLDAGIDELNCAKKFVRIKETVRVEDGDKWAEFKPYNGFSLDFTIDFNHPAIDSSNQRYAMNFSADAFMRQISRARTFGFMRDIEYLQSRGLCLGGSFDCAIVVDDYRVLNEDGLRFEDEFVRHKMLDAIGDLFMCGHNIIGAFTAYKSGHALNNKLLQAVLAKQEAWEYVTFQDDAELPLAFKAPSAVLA
Give Ki for every item shown.
Answers are plain numbers, in nM.

Some solved entries appear below for comparison.
# get_value(readout='Ki', item= `O=C(CO[C@@H](CO)c1ccc(C#Cc2ccccc2)cc1)NO` ) 4400

One more compound: `O=C(COCc1ccc(C#Cc2ccc(CN3CCOCC3)cc2)cc1)NO` 1450

One more compound: `O=C(NO)[C@H](CO)O[C@H](CO)c1ccc(C#Cc2ccc(CN3CCOCC3)cc2)cc1` 358

One more compound: `O=C(CO[C@@H](CO)c1ccc(C#Cc2ccc(CN3CCOCC3)cc2)cc1)NO` 27300

One more compound: `O=C(CO[C@H](CO)c1ccc(C#Cc2ccccc2)cc1)NO` 66

Continuing:
# get_value(readout='Ki', item= `O=C(CO[C@H](CO)c1ccc(C#Cc2ccc(CN3CCOCC3)cc2)cc1)NO` ) 95
